Reference source: the supplement of paper PMC10011410

System: U-2 OS
protocol: cell painting activity score (Mahalanobis distance from DMSO wells); higher = stronger morphological phenotype
settings: 40 µM; 24 h
measurementName: cell painting activity score

- COC1=CC=C(S(=O)(O/N=C2C=C(C(C(C)=C\2)=O)C)=O)C=C1: 22.8
- O=C(O[C@@H]1Cc2c(O)cc(O)cc2O[C@@H]1c1cc(O)c(O)c(O)c1)c1cc(O)c(O)c(O)c1: 4.51
- O=C(/C(C(N1CC2=CC=CC=C2)=O)=C/C3=C(C)C=C(O)C=C3C)N(CC4=CC=CC=C4)C1=O: 8.64
- CCCCCCCc1ccc(CCc2cccc(O)c2C(=O)O)cc1: 19.1

====

System: U-2 OS
protocol: relative cell count vs DMSO (cell painting) (fraction of DMSO control); higher = more cells remaining (less cytotoxic)
settings: 5 µM; 24 h
Reported relative cell count is given for each of the following molecules.
measurementName: relative cell count

- CC(=O)c1c(O)c(C)c(O)c(Cc2c(O)c3c(c(C(=O)C=Cc4ccccc4)c2O)OC(C)(C)C=C3)c1O: 1.14
- O=C(O)CSc1cc(NS(=O)(=O)c2ccc(Br)cc2)c2ccccc2c1O: 0.926
- Cl.Cl.O=C(O)Cn1nnc(-c2ccc(CN(CCCCOc3ccc(CN4CCCC4)cc3)CCc3ccccc3)cc2)n1: 1.13

====

Test system: U-2 OS
protocol: relative cell count vs DMSO (cell painting) (fraction of DMSO control); higher = more cells remaining (less cytotoxic)
settings: 1.25 µM; 24 h
If the reported relative cell count equals or exceeds 0.7, assign t. If not, assign f.

* CCOc1cc2ncc(C#N)c(Nc3ccc(OCc4ccccn4)c(Cl)c3)c2cc1NC(=O)/C=C/CN(C)C | t
* COc1cc([C@@H]2c3cc4c(cc3[C@@H](O[C@@H]3O[C@@H]5CO[C@@H](C)O[C@H]5[C@H](O)[C@H]3O)[C@H]3COC(=O)[C@H]23)OCO4)cc(OC)c1O | f
* Cn1c(=O)n(-c2ccc(C(C)(C)C#N)cc2)c2c3cc(-c4cnc5ccccc5c4)ccc3ncc21 | t
* CNc1nc(-c2ccccc2)[n+](-c2ccccc2)s1 | t
* C[C@@H]1CC[C@@]2(OC1)O[C@H]1[C@@H](O)[C@H]3[C@@H]4CC[C@H]5C[C@@H](O[C@@H]6O[C@H](CO)[C@H](O[C@@H]7O[C@H](CO)[C@@H](O)[C@H](O[C@@H]8OC[C@@H](O)[C@H](O)[C@H]8O)[C@H]7O[C@@H]7O[C@H](CO)[C@H](O)[C@H](O[C@@H]8O[C@H](CO)[C@@H](O)[C@H](O)[C@H]8O)[C@H]7O)[C@H](O)[C@H]6O)[C@H](O)C[C@]5(C)[C@H]4CC[C@]3(C)[C@H]1[C@@H]2C | t
* CC1=NN(c2ccc(C(=O)O)cc2)C(=O)/C1=C\c1ccc(-c2cc(C)c(C)cc2[N+](=O)[O-])o1 | t
* O=C(Nc1ccc([N+](=O)[O-])cc1Cl)c1cc(Cl)ccc1O | t
* COC(=O)[C@@]12OC[C@]34[C@H]([C@@H](O)[C@@H]1O)[C@@]1(C)CC(=O)C(O)=C(C)[C@@H]1C[C@H]3OC(=O)[C@H](OC(=O)CC(C)C)[C@@H]24 | f

====

Reported relative cell count is given for each of the following compounds.
Tested on: U-2 OS
protocol: relative cell count vs DMSO (cell painting) (fraction of DMSO control); higher = more cells remaining (less cytotoxic)
settings: 1.25 µM; 24 h
measurementName: relative cell count

• CC1(C)[C@@H](O[C@H]2O[C@H](C(=O)O)[C@@H](O)[C@H](O)[C@H]2O[C@@H]2O[C@H](C(=O)O)[C@@H](O)[C@H](O)[C@H]2O)CC[C@]2(C)[C@H]3C(=O)C=C4[C@@H]5C[C@@](C)(C(=O)O)CC[C@]5(C)CC[C@@]4(C)[C@]3(C)CC[C@@H]12.N = 0.993
• CC(C)(N=NC(C)(C)C(=N)N)C(=N)N.Cl.Cl = 0.966
• O=C(/C(C(N1CC2=CC=CC=C2)=O)=C/C3=C(C)C=C(O)C=C3C)N(CC4=CC=CC=C4)C1=O = 0.839
• C[C@@H]1Cc2c(Cl)cc(C(=O)N[C@@H](Cc3ccccc3)C(=O)O)c(O)c2C(=O)O1 = 0.998
• O=S1(=O)CCc2ccccc21 = 0.988
• CCCCc1c(-c2ccc(OC)cc2)[nH]c2nccnc12 = 0.952
• O=S1(=O)CC(Sc2cccs2)c2ccccc21 (stereo unspecified) = 0.974
• CNC(=O)c1cc(Oc2ccc(NC(=O)Nc3ccc(Cl)c(C(F)(F)F)c3)cc2)ccn1 = 0.956
• CC(=O)N[C@@H](CCCCNC(=O)CSCCNC(=O)CCNC(=O)[C@H](O)C(C)(C)COP(=O)(O)OP(=O)(O)OC[C@H]1O[C@@H](n2cnc3c(N)ncnc32)[C@H](O)[C@@H]1OP(=O)(O)O)C(N)=O.O=C(O)C(F)(F)F = 0.879
• Oc1cccc(-c2nc(N3CCOCC3)c3oc4ncccc4c3n2)c1 = 0.875
• C=CC(=O)Nc1cccc(Oc2nc(Nc3ccc(N4CCN(C)CC4)cc3OC)ncc2Cl)c1 = 1
